Tested on: RARb homodimer (NR concentration 270 nM)
EXPERIMENT DESCRIPTION: PBM binding z-score (relative to random genomic background probes); higher = stronger binding; sequences stand for … in GC…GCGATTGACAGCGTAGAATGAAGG
Classification field: enter yes (1) for PBM binding z-score values not below 3, no (0) for values below it.

# example entries with known answers
{"RESIDUE STRING": "AGTCAAAGTTCACTAGCTAACGTAAGATTCAGCT", "LABEL CLASS": "yes (1)"}
{"RESIDUE STRING": "TCTATTAGTTGAAGGGCAAACGACGAGTCCGTTT", "LABEL CLASS": "no (0)"}
{"RESIDUE STRING": "TGTCGGAGGACACGAAAGGTCAGAGCTCGACATC", "LABEL CLASS": "yes (1)"}

**Q:** Would you say TCAAGTAGGTTAGGGGCATTCAGAATGGCGTCGA shows PBM binding z-score at minimum 3?
**A:** no (0)

**Q:** CCTAATTGGTCAGGAGGTCACACACCGGATATGA ?
**A:** yes (1)

**Q:** // repeat for CCTGCTAGGTCAGTGGTCAGCTAAAGCAGCTCGC and report
**A:** no (0)

**Q:** Lookup CGTCCAAGGTCAGCTGGTCAGTGAAAGCGACGTG
**A:** yes (1)

**Q:** // same read-out, input: TCTCGGAGGACACGAAAGGACAGAGCTCGACATC
**A:** no (0)
